- test_system: Alkaline phosphatase, tissue-nonspecific isozyme (Homo sapiens)
- test_protocol: human TNAP enzyme activators, primary screen, biochemical, luminescent, intermediate phosphate acceptor level (AID 813)
- test_conditions: purified TNAP, CDP-star luminescence, 100 mM DEA, 30 min; at 20 µM; active compounds read high; scale: 0 levamisole-inhibited, 1 vehicle-only enzyme
The whole screen tested about 64,000 compounds, of which fewer than 10 were called active. These entries were drawn from the full list.
endpoint_label: activation factor
Provide a numeric answer; units are not to be included.

Worked cases, answers included:
compound	activation factor
CC(=O)N1CCN(CCN=CC2=C(O)CC(C)(C)CC2=O)CC1	0.9
CCOC(=O)c1sc(NC(=O)c2cc(S(=O)(=O)N3CCOCC3)ccc2C)nc1C	0.9
O=C1CN(C(=O)COC(=O)C2CC(=O)N(Cc3ccco3)C2)c2ccccc2N1 (centres undefined)	0.9
O=C(Nc1c(C(=O)N2CCCCC2)cnn1-c1ccccc1)c1ccco1	1
CCN(CC)c1ccc2cc(C(=O)O)c(=O)oc2c1	1
CCN(CC)CCN1C(=O)C(=O)/C(=C(/O)c2ccc(OC)c(OC)c2)C1c1ccccn1 (centres undefined)	1
CC(C)c1cc(C(=O)O)on1	1
COCCCn1c(CCC(=O)O)ccc1-c1ccc(F)cc1	0.9
COc1cccc(N2C(=O)CC(N3CCN(S(=O)(=O)c4ccccc4)CC3)C2=O)c1 (centres undefined)	1
Nc1nonc1C(=O)NCCc1ccccc1	0.9

Please respond with reported activation factor (system Alkaline phosphatase, tissue-nonspecific isozyme (Homo sapiens)) for CCN(CC)S(=O)(=O)c1cccc(C(=O)NCC(=O)OCC(=O)NCc2ccccc2)c1 . 0.9

Enter recorded activation factor with Alkaline phosphatase, tissue-nonspecific isozyme (Homo sapiens) for CCOc1cc(S(=O)(=O)NC2CC(C)(C)NC(C)(C)C2)ccc1F here. 0.9

Jot down activation factor (Alkaline phosphatase, tissue-nonspecific isozyme (Homo sapiens)) of CC(C)(C)c1csc(NC2=NS(=O)(=O)c3ccccc32)n1 . 0.9

// output activation factor; input O=C(OCC(=O)N1CCN(C(=O)c2ccco2)CC1)c1ccccc1Cc1ccccc1 ; system Alkaline phosphatase, tissue-nonspecific isozyme (Homo sapiens) 1

Would you please give the reported activation factor of COc1ccc2nc(NC3=NCN(CC4CCCO4)CN3)nc(C)c2c1 (centres undefined) with Alkaline phosphatase, tissue-nonspecific isozyme (Homo sapiens)? 0.9

Write down the reported activation factor (system: Alkaline phosphatase, tissue-nonspecific isozyme (Homo sapiens)) of COc1cc(OC)c(C(=O)NC2CC(C)(C)NC(C)(C)C2)cc1OC 1

Under Alkaline phosphatase, tissue-nonspecific isozyme (Homo sapiens), report activation factor for Fc1cc(F)c2nc(N3CCOCC3)sc2c1 0.9

Jot down activation factor (Alkaline phosphatase, tissue-nonspecific isozyme (Homo sapiens)) of Cc1ccc(S(=O)(=O)c2c(N)n(C)c3nc4ccccc4nc23)cc1 . 0.9

Provide activation factor, system Alkaline phosphatase, tissue-nonspecific isozyme (Homo sapiens), entry Cc1ccc(S(=O)(=O)NCC(=O)N(CC(=O)NC2CCCCC2)Cc2ccco2)cc1 0.9

* * *

- test_system: Alkaline phosphatase, tissue-nonspecific isozyme (Homo sapiens)
- test_protocol: human TNAP enzyme activators, primary screen, biochemical, luminescent, intermediate phosphate acceptor level (AID 813)
- test_conditions: purified TNAP, CDP-star luminescence, 100 mM DEA, 30 min; at 20 µM; active compounds read high; scale: 0 levamisole-inhibited, 1 vehicle-only enzyme
Out of some 64,000 compounds screened, fewer than 10 were called active. Not all results are given here.
endpoint_label: activation factor
No unit in the answer, only the number.

compound	activation factor
O=C(c1ccccc1)c1ccc(OC(=O)N2CCCC2)cc1	0.9

Give activation factor only, for NC(=O)CSc1c[nH]c2ccccc12 , using Alkaline phosphatase, tissue-nonspecific isozyme (Homo sapiens) data. 0.9

Return reported activation factor for target or system Alkaline phosphatase, tissue-nonspecific isozyme (Homo sapiens), item Cc1cc(N2CCCC2=O)cc(C)c1S(N)(=O)=O . 0.9

# return activation factor of CC(=O)Nc1cccc2c1[n+]([O-])c(C)c(C)[n+]2[O-] (system: Alkaline phosphatase, tissue-nonspecific isozyme (Homo sapiens)) 1

Find activation factor for CCOC(=O)c1c(N)c(C#N)nn1-c1ccccc1C(=O)OC on Alkaline phosphatase, tissue-nonspecific isozyme (Homo sapiens) and write it down. 0.8

Please tell me the measured activation factor for Cc1ccc(C(=O)O)cc1S(=O)(=O)NCC1CCCO1 (stereo unspecified) ; system: Alkaline phosphatase, tissue-nonspecific isozyme (Homo sapiens). 0.9

The reported numbers originate from PubChem BioAssay AID813.
